# Test system: Digitaria sanguinalis (DIGSA)
# Experiment description: Post-emergence efficacy, glasshouse spray test
# Assay type: in vivo
# Test settings: Digitaria sanguinalis, post-emergence, 312 h; Application Rate 500 g/Ha; evaluated after 13 days; read-out: Control of weed species after post-emergence application, DIGSA (100=total damage to plant; 0=no damage to plant)
Parameter pest or weed control at 500 g/ha: see the listing below.
Value type: pest or weed control at 500 g/ha (%)

>  <Molecule>
COC(=O)CC[n+]1ccc(-c2nccs2)cn1 [Compound A112]

>  <Study target>
Digitaria sanguinalis (DIGSA)

>  <Output unit>
%

>  <Observed>
90

$$$$
>  <Molecule>
COP(=O)([O-])C[n+]1ccc(-c2ncco2)cn1 [Compound A103]

>  <Study target>
Digitaria sanguinalis (DIGSA)

>  <Output unit>
%

>  <Observed>
90

$$$$
>  <Molecule>
Cc1nsc(-c2cc[n+](CCS(=O)(=O)[O-])nc2)n1 [Compound A10]

>  <Study target>
Digitaria sanguinalis (DIGSA)

>  <Output unit>
%

>  <Observed>
50

$$$$
>  <Molecule>
Nc1nsc(-c2cc[n+](CCS(=O)(=O)[O-])nc2)n1 [Compound A141]

>  <Study target>
Digitaria sanguinalis (DIGSA)

>  <Output unit>
%

>  <Observed>
10

$$$$
>  <Molecule>
Cc1cnc(-c2cc[n+](CCC(=O)O)nc2)o1 [Compound A15, 2,2,2-trifluoroacetate]

>  <Study target>
Digitaria sanguinalis (DIGSA)

>  <Output unit>
%

>  <Observed>
80

$$$$
>  <Molecule>
O=S(=O)([O-])CC[n+]1ccc(-c2ccon2)cn1 [Compound A64]

>  <Study target>
Digitaria sanguinalis (DIGSA)

>  <Output unit>
%

>  <Observed>
90

$$$$
>  <Molecule>
O=S(=O)([O-])CC[n+]1ccc(-c2ccoc2)cn1 [Compound A42]

>  <Study target>
Digitaria sanguinalis (DIGSA)

>  <Output unit>
%

>  <Observed>
20

$$$$
>  <Molecule>
O=S(=O)([O-])CC[n+]1ccc(-c2cccs2)cn1 [Compound A36]

>  <Study target>
Digitaria sanguinalis (DIGSA)

>  <Output unit>
%

>  <Observed>
10

$$$$
>  <Molecule>
O=C(O)CC[n+]1ccc(-c2ccsc2)cn1 [Compound A63]

>  <Study target>
Digitaria sanguinalis (DIGSA)

>  <Output unit>
%

>  <Observed>
20

$$$$
>  <Molecule>
O=S(=O)([O-])CCC[n+]1ccc(-c2ccon2)cn1 [Compound A59]

>  <Study target>
Digitaria sanguinalis (DIGSA)

>  <Output unit>
%

>  <Observed>
70

$$$$
>  <Molecule>
COC(=O)c1cccc(C[n+]2ccc(-c3ncco3)cn2)c1 [Compound A92]

>  <Study target>
Digitaria sanguinalis (DIGSA)

>  <Output unit>
%

>  <Observed>
20

$$$$
>  <Molecule>
O=S(=O)([O-])CC[n+]1ccc(-c2nc(C(F)(F)F)cs2)cn1 [Compound A18]

>  <Study target>
Digitaria sanguinalis (DIGSA)

>  <Output unit>
%

>  <Observed>
30

$$$$
>  <Molecule>
Cn1nnc(-c2cc[n+](CCS(=O)(=O)O)nc2)n1 [Compound A11]

>  <Study target>
Digitaria sanguinalis (DIGSA)

>  <Output unit>
%

>  <Observed>
90

$$$$
>  <Molecule>
O=S(=O)([O-])CC[n+]1ccc(-c2ncc(Cl)s2)cn1 [Compound A44]

>  <Study target>
Digitaria sanguinalis (DIGSA)

>  <Output unit>
%

>  <Observed>
50

$$$$
>  <Molecule>
CNC(=O)c1oc(-c2cc[n+](CCC(=O)O)nc2)nc1C [Compound A129]

>  <Study target>
Digitaria sanguinalis (DIGSA)

>  <Output unit>
%

>  <Observed>
70

$$$$
>  <Molecule>
Cn1ncc(-c2cc[n+](CCS(=O)(=O)[O-])nc2)n1 [Compound A6]

>  <Study target>
Digitaria sanguinalis (DIGSA)

>  <Output unit>
%

>  <Observed>
60

$$$$
>  <Molecule>
O=C(O)CC[n+]1ccc(-c2cnsc2)cn1 [Compound A62]

>  <Study target>
Digitaria sanguinalis (DIGSA)

>  <Output unit>
%

>  <Observed>
10

$$$$
>  <Molecule>
O=S(=O)([O-])CC(O)C[n+]1ccc(-c2ncco2)cn1 (centres unmarked) [Compound A84]

>  <Study target>
Digitaria sanguinalis (DIGSA)

>  <Output unit>
%

>  <Observed>
70

$$$$
>  <Molecule>
O=S(=O)([O-])CC[n+]1ccc(-c2nccs2)cn1 [Compound A1]

>  <Study target>
Digitaria sanguinalis (DIGSA)

>  <Output unit>
%

>  <Observed>
100

$$$$
>  <Molecule>
CNC(=O)c1oc(-c2cc[n+](CCC(=O)OC)nc2)nc1C [Compound A137]

>  <Study target>
Digitaria sanguinalis (DIGSA)

>  <Output unit>
%

>  <Observed>
50

$$$$

----------
# Test system: Setaia fabei (SETFA)
# Experiment description: Post-emergence efficacy, glasshouse spray test
# Format: in vivo
# Test settings: Setaria faberi, post-emergence, 312 h; Application Rate 500 g/Ha; evaluated after 13 days; read-out: Control of weed species after post-emergence application, SETFA (100=total damage to plant; 0=no damage to plant)
Parameter pest or weed control at 500 g/ha: see the listing below.

>  <Compound structure>
COC(=O)CCC[n+]1ccc(-c2nc(C)co2)cn1

>  <Study target>
Setaia fabei (SETFA)

>  <pest or weed control at 500 g/ha / %>
90

$$$$
>  <Compound structure>
Cn1nnnc1-c1cc[n+](CCS(=O)(=O)O)nc1

>  <Study target>
Setaia fabei (SETFA)

>  <pest or weed control at 500 g/ha / %>
40

$$$$
>  <Compound structure>
CNc1nnc(-c2cc[n+](CCS(=O)(=O)[O-])nc2)s1

>  <Study target>
Setaia fabei (SETFA)

>  <pest or weed control at 500 g/ha / %>
70

$$$$
>  <Compound structure>
O=C(O)CC[n+]1ccc(-c2cnsc2)cn1

>  <Study target>
Setaia fabei (SETFA)

>  <pest or weed control at 500 g/ha / %>
0

$$$$
>  <Compound structure>
Cc1nsc(-c2cc[n+](CCS(=O)(=O)[O-])nc2)c1C

>  <Study target>
Setaia fabei (SETFA)

>  <pest or weed control at 500 g/ha / %>
70

$$$$

----------
# Tested on: Setaia fabei (SETFA)
# Experiment description: Post-emergence efficacy, glasshouse spray test
# Type: in vivo
# Test settings: Setaria faberi, post-emergence, 312 h; Application Rate 500 g/Ha; evaluated after 13 days; read-out: Control of weed species after post-emergence application, SETFA (100=total damage to plant; 0=no damage to plant)
Value type: pest or weed control at 500 g/ha (%)

>  <Compound>
COC(=O)CCC[n+]1ccc(-c2ncco2)cn1

>  <Value type>
pest or weed control at 500 g/ha

>  <Observed>
90

$$$$
>  <Compound>
O=C(O)CC[n+]1ccc(-c2csnn2)cn1 [Compound A139, 2,2,2-trifluoroacetate]

>  <Value type>
pest or weed control at 500 g/ha

>  <Observed>
60

$$$$
>  <Compound>
Cn1cnc(-c2cc[n+](CCC(=O)O)nc2)n1

>  <Value type>
pest or weed control at 500 g/ha

>  <Observed>
90

$$$$
>  <Compound>
O=S(=O)([O-])CC[n+]1ccc(-c2nc(C(F)(F)F)co2)cn1

>  <Value type>
pest or weed control at 500 g/ha

>  <Observed>
60

$$$$
>  <Compound>
Cn1cnc(-c2cc[n+](CCOS(=O)(=O)[O-])nc2)n1

>  <Value type>
pest or weed control at 500 g/ha

>  <Observed>
90

$$$$
>  <Compound>
Cn1cnnc1-c1cc[n+](CCS(=O)(=O)[O-])nc1

>  <Value type>
pest or weed control at 500 g/ha

>  <Observed>
100

$$$$
>  <Compound>
COc1cc(-c2cc[n+](CCC(=O)O)nc2)sn1

>  <Value type>
pest or weed control at 500 g/ha

>  <Observed>
30

$$$$
>  <Compound>
O=C(O)CC[n+]1ccc(-c2cncs2)cn1

>  <Value type>
pest or weed control at 500 g/ha

>  <Observed>
50

$$$$
>  <Compound>
COP(=O)([O-])C[n+]1ccc(-c2ncco2)cn1

>  <Value type>
pest or weed control at 500 g/ha

>  <Observed>
80

$$$$
>  <Compound>
O=C(O)CC[n+]1ccc(-c2cccs2)cn1

>  <Value type>
pest or weed control at 500 g/ha

>  <Observed>
0

$$$$
>  <Compound>
Cn1ncnc1-c1cc[n+](CCC(=O)O)nc1

>  <Value type>
pest or weed control at 500 g/ha

>  <Observed>
90

$$$$
>  <Compound>
COP(=O)(O)CC[n+]1ccc(-c2ncco2)cn1

>  <Value type>
pest or weed control at 500 g/ha

>  <Observed>
50

$$$$
>  <Compound>
COC(=O)[C@@H](N)CC[n+]1ccc(-c2ncco2)cn1

>  <Value type>
pest or weed control at 500 g/ha

>  <Observed>
90

$$$$
>  <Compound>
Cc1nc(-c2cc[n+](CCS(=O)(=O)[O-])nc2)oc1C

>  <Value type>
pest or weed control at 500 g/ha

>  <Observed>
50

$$$$
>  <Compound>
CC(C(=O)O)[n+]1ccc(-c2ncco2)cn1 (stereo not shown)

>  <Value type>
pest or weed control at 500 g/ha

>  <Observed>
10

$$$$
>  <Compound>
COP(=O)(O)CCC[n+]1ccc(-c2ncco2)cn1

>  <Value type>
pest or weed control at 500 g/ha

>  <Observed>
20

$$$$
>  <Compound>
Cn1cnc(-c2cc[n+](CCCC(=O)O)nc2)n1

>  <Value type>
pest or weed control at 500 g/ha

>  <Observed>
100

$$$$
>  <Compound>
Cn1nc(-c2cc[n+](CCS(=O)(=O)[O-])nc2)cc1C(F)(F)F

>  <Value type>
pest or weed control at 500 g/ha

>  <Observed>
20

$$$$
>  <Compound>
Cc1coc(-c2cc[n+](CC(=O)O)nc2)n1

>  <Value type>
pest or weed control at 500 g/ha

>  <Observed>
80

$$$$
>  <Compound>
O=S(=O)([O-])CCC[n+]1ccc(-c2nnco2)cn1

>  <Value type>
pest or weed control at 500 g/ha

>  <Observed>
10

$$$$
>  <Compound>
Cc1coc(-c2cc[n+](CCC(=O)O)nc2)n1

>  <Value type>
pest or weed control at 500 g/ha

>  <Observed>
100

$$$$
>  <Compound>
O=S(=O)([O-])CC[n+]1ccc(-c2cocn2)cn1

>  <Value type>
pest or weed control at 500 g/ha

>  <Observed>
20

$$$$
>  <Compound>
O=C(O)CC[n+]1ccc(-c2nccs2)cn1

>  <Value type>
pest or weed control at 500 g/ha

>  <Observed>
100

$$$$
>  <Compound>
O=S(=O)([O-])CC[n+]1ccc(-c2ccco2)cn1

>  <Value type>
pest or weed control at 500 g/ha

>  <Observed>
40

$$$$
>  <Compound>
Cc1nc(-c2cc[n+](CCS(=O)(=O)[O-])nc2)sc1C

>  <Value type>
pest or weed control at 500 g/ha

>  <Observed>
50

$$$$
>  <Compound>
O=C(O)CCC[n+]1ccc(-c2nccs2)cn1

>  <Value type>
pest or weed control at 500 g/ha

>  <Observed>
100

$$$$
>  <Compound>
O=C(O)CC[n+]1ccc(-c2nc(C(F)(F)F)co2)cn1

>  <Value type>
pest or weed control at 500 g/ha

>  <Observed>
80

$$$$
>  <Compound>
CNC(=O)c1coc(-c2cc[n+](CCC(=O)O)nc2)n1

>  <Value type>
pest or weed control at 500 g/ha

>  <Observed>
70

$$$$
>  <Compound>
O=C(O)CC[n+]1ccc(-c2ccno2)cn1

>  <Value type>
pest or weed control at 500 g/ha

>  <Observed>
80

$$$$
>  <Compound>
OCCC[n+]1ccc(-c2ncco2)cn1

>  <Value type>
pest or weed control at 500 g/ha

>  <Observed>
40

$$$$
>  <Compound>
O=C(O)CC[n+]1ccc(-c2ncsn2)cn1 [Compound A142, 2,2,2-trifluoroacetate]

>  <Value type>
pest or weed control at 500 g/ha

>  <Observed>
90

$$$$
>  <Compound>
COc1cc(-c2cc[n+](CCS(=O)(=O)[O-])nc2)sn1

>  <Value type>
pest or weed control at 500 g/ha

>  <Observed>
40

$$$$
>  <Compound>
Cn1ncc(-c2cc[n+](CCS(=O)(=O)[O-])nc2)n1

>  <Value type>
pest or weed control at 500 g/ha

>  <Observed>
70

$$$$
>  <Compound>
O=S(=O)([O-])CC[n+]1ccc(-c2ncn[nH]2)cn1

>  <Value type>
pest or weed control at 500 g/ha

>  <Observed>
10

$$$$
>  <Compound>
CCOC(=O)c1oc(-c2cc[n+](CCC(=O)O)nc2)nc1C

>  <Value type>
pest or weed control at 500 g/ha

>  <Observed>
30

$$$$
>  <Compound>
COC(=O)C[n+]1ccc(-c2ncco2)cn1

>  <Value type>
pest or weed control at 500 g/ha

>  <Observed>
70

$$$$
>  <Compound>
CNC(=O)c1oc(-c2cc[n+](CCC(=O)O)nc2)nc1C

>  <Value type>
pest or weed control at 500 g/ha

>  <Observed>
100

$$$$
>  <Compound>
O=S(=O)([O-])CC[n+]1ccc(-c2ccoc2)cn1

>  <Value type>
pest or weed control at 500 g/ha

>  <Observed>
10

$$$$
>  <Compound>
O=S(=O)([O-])CC[n+]1ccc(-c2ncc(Cl)s2)cn1

>  <Value type>
pest or weed control at 500 g/ha

>  <Observed>
60

$$$$
>  <Compound>
COC(=O)c1ccccc1C[n+]1ccc(-c2ncco2)cn1

>  <Value type>
pest or weed control at 500 g/ha

>  <Observed>
20

$$$$
